# testedSystem: DCN1 (DCUND1) protein PONY domain (Homo sapiens (Human), UniProt Q96GG9)
# Sequence (Q96GG9 60-248): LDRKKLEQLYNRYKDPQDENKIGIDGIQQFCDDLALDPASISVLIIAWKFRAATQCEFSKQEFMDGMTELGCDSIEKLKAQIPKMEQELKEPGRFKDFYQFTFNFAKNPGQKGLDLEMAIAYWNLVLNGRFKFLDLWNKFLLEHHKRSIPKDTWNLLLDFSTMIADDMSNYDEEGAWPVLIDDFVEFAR
# testMethodNotes: TR-FRET assay, DCN1 binding with FAM-labeled probe
# measurementConditions: 24 hr after treatment with compound; read-out: TR FRET IC50 24 hr
pIC50: −log10 of the molar value.
Record form. Attribute: pIC50. Fill in for each entry.

[[record]]
compound = "CCOc1ccc(C)c(C(=O)N[C@@H]2C(=O)N(CC)c3c(c(C(=O)N4[C@H](C#N)C[C@H]5C[C@H]54)nn3C3CCOCC3)[C@@H]2C2CC2)c1 [Compound I-620]"
result = "≥ 6.70"

[[record]]
compound = "CCN1C(=O)[C@@H](NC(=O)c2cccc(C(F)(F)F)c2)[C@@H](c2ccc(F)cc2)c2c(NC(=O)C3=CCCN(C)C3)nn(-c3ccccc3)c21 (racemic) [Compound I-488]"
result = "≥ 6.70"

[[record]]
compound = "CCN1C(=O)[C@@H](NC(=O)c2cccc(C(F)(F)F)c2)[C@@H](c2ccc(F)cc2)c2c(C(=O)N3CCC[C@H]3C#N)nn(-c3cccc(OCCCN(C)C4COC4)c3)c21 [Compound I-335]"
result = "≥ 6.70"

[[record]]
compound = "CCN1C(=O)[C@@H](NC(=O)c2cccc(C(F)(F)F)c2)[C@@H](c2ccc(F)cc2)c2c(NC(=O)[C@@H](C)Cl)nn(-c3ccccc3)c21 (mixture of isomers) [Compound I-101]"
result = "6.00 to 6.70"

[[record]]
compound = "CCN1C(=O)[C@@H](NC(=O)c2cccc(C(F)(F)F)c2)[C@@H](c2ccc(F)cc2)c2c(C(=O)NC3(C#N)CC3)nn(-c3ccccc3)c21 [Compound I-112]"
result = "6.00 to 6.70"

[[record]]
compound = "CCN1C(=O)[C@@H](NC(=O)c2ccc(C)c(C(F)(F)F)c2)[C@@H](C2CC2)c2c(C(=O)N3[C@H](C#N)C[C@H]4C[C@H]43)nn(C3CCOCC3)c21 [Compound I-627]"
result = "≥ 6.70"

[[record]]
compound = "C=C(CN1CCN(C2COC2)CC1)C(=O)NCc1nn(-c2ccccc2)c2c1[C@@H](c1ccc(F)cc1)[C@H](NC(=O)c1cccc(C(F)(F)F)c1)C(=O)N2CC (racemic) [Compound I-40]"
result = "≥ 6.70"

[[record]]
compound = "CCN1C(=O)[C@@H](NC(=O)c2cccc(C(F)(F)F)c2)[C@@H](C2CC2)c2c(C(=O)N(CC#N)CC#N)nn(C3CCOCC3)c21 [Compound I-373]"
result = "≥ 6.70"

[[record]]
compound = "CCN1C(=O)[C@H](NC(=O)c2cccc(C(F)(F)F)c2)[C@H](c2ccc(C)cc2)c2c(C(=O)N(C)CC#N)nn(C3CC3)c21 [Compound I-494]"
result = "5.52 to 6.00"

[[record]]
compound = "CCN1C(=O)[C@@H](NC(=O)c2cccc(C(F)(F)F)c2)[C@@H](C2CC2)c2c(C(=O)N3[C@H](C#N)C[C@H]4C[C@H]43)nn(C3CC3)c21 [Compound I-327]"
result = "≥ 6.70"


Consider the additional compound presented here.
I looked up CCN1C(=O)[C@@H](NC(=O)c2cccc(C(F)(F)F)c2)[C@@H](C2CC2)c2c(C(=O)N3CCOC[C@H]3C#N)nn(C3CCOCC3)c21 [Compound I-381] and its pIC50 for DCN1 (DCUND1) protein PONY domain (Homo sapiens (Human), UniProt Q96GG9) was ≥ 6.70
